Numbers sourced from paper PMC9944328.

molecular target: SSTR2 (Homo sapiens); assay: NanoBiT β-arrestin 1 recruitment assay, HEK293 (SSTR2 wild-type); format: cell-based; design: Human full-length SSTR wild-type and mutant vectors were C-terminally fused; expressed in transfected cells; host or cells: HEK293; settings: EC50 (best-fit), WT-1 (I130A set)
Sequence (P30874 whole entry, the tested form may be a part): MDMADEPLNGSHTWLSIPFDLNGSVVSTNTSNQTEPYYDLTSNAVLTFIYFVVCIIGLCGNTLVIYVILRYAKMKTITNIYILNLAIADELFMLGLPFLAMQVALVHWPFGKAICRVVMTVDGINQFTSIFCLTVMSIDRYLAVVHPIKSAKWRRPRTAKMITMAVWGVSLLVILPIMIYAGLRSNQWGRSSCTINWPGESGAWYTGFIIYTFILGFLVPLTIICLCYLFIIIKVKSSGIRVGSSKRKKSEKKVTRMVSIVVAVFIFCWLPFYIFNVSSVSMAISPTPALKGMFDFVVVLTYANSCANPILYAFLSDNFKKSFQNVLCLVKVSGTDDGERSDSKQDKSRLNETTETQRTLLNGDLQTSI
Sequence (P49407 whole entry partner, the tested form may be a part): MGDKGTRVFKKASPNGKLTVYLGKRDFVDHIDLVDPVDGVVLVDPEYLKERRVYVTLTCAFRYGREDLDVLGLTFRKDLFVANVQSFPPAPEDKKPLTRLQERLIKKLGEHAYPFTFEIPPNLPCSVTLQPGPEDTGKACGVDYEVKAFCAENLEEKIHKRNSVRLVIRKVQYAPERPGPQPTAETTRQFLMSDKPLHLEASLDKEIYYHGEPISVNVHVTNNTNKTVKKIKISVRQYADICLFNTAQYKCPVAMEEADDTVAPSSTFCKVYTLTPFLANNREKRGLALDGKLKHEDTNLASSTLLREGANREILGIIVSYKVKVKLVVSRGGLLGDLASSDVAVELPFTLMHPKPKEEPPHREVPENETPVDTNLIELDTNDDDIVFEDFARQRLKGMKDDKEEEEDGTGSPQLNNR
OBSERVED PROPERTY: EC50 (nM)
Numeric only. Scale: nM

Short answer for N#Cc1cccc(-c2ccc3ncc(-c4cc(F)cc(F)c4)c(N4CCC(N)CC4)c3c2)c1O : EC50 was 292

---

test system: SSTR2 mutants; assay: Bystander BRET endosomal trafficking (β-arrestin 1-Nluc, FYVE-mVenus), HEK293 (SSTR2 mutants); conditions: read-out: EC50 (best-fit); I130A-2 (run 2);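 also: Read-out is the BRET ratio between Nluc-fused β-arrestin 1 and the early endosome marker FYVE-mVenus, measured after ligand addition with coelenterazine h as substrate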
OBSERVED PROPERTY: EC50 (nM)
Give the value in nM but do not write nM after it.

For record N#Cc1cccc(-c2ccc3ncc(-c4cc(F)cc(F)c4)c(N4CCC(N)CC4)c3c2)c1O the listed EC50 is 0.139

---

molecular target: SSTR2 (Homo sapiens); experiment: NanoBiT β-arrestin 1 recruitment assay, HEK293 (SSTR2 wild-type); assay type: cell-based; parameters: Human full-length SSTR wild-type and mutant vectors were C-terminally fused; expressed in transfected cells; host or cells: HEK293; settings: EC50 (best-fit), WT-3 (V103A set)
OBSERVED PROPERTY: pEC50
Please treat pEC50 as minus the base-10 logarithm of the molar concentration.

Per the record, N#Cc1cccc(-c2ccc3ncc(-c4cc(F)cc(F)c4)c(N4CCC(N)CC4)c3c2)c1O has pEC50 of 6.51

---

system: SSTR2 mutants; assay: SSTRs Gi-mediated cAMP inhibition, GloSensor, HEK293, 5 μM forskolin, 15 min room temperature (SSTR2 mutants); type: cell-based, human; settings: read-out: EC50 (best-fit value), cAMP inhibition; F272A-2 (run 2)
OBSERVED PROPERTY: pEC50
Keep in mind that pEC50 stands for -log10 of concentration in molar terms.

Record N#Cc1cccc(-c2ccc3ncc(-c4cc(F)cc(F)c4)c(N4CCC(N)CC4)c3c2)c1O has SSTR2 mutants pEC50 equal to 7.57

---

biological target: SSTR2 (Homo sapiens, UniProt P30874); assay: SSTRs Gi-mediated cAMP inhibition, GloSensor, HEK293, 5 μM forskolin, 15 min room temperature (SSTR2 wild-type); assay type: cell-based; conditions: EC50, cAMP inhibition best-fit; D122A set; WT-2
Sequence (P30874 whole entry, the tested form may be a part): as the sequence (P30874 whole entry, the tested form may be a part) above
OBSERVED PROPERTY: pEC50
Scale note: pEC50 = -log10(concentration in M).

Noted for N#Cc1cccc(-c2ccc3ncc(-c4cc(F)cc(F)c4)c(N4CCC(N)CC4)c3c2)c1O : its pEC50 reads 8.58

---

system: SSTR2 mutants; test: SSTRs Gi-mediated cAMP inhibition, GloSensor, HEK293, 5 μM forskolin, 15 min room temperature (SSTR2 mutants); assay type: cell-based, human; conditions: L99A, run 1, best-fit
OBSERVED PROPERTY: EC50 (nM)
Respond numerically; units are nM and should not be typed.

Per the record, N#Cc1cccc(-c2ccc3ncc(-c4cc(F)cc(F)c4)c(N4CCC(N)CC4)c3c2)c1O has EC50 of 6.78

---

target: SSTR2 (Homo sapiens, UniProt P30874); assay: Bystander BRET endosomal trafficking (β-arrestin 1-Nluc, FYVE-mVenus), HEK293 (SSTR2 wild-type); type: cell-based; set-up: The human full-length SSTRs and mutants were cloned into the pcDNA3.1+ vector; expressed in transfected cells; host or cells: HEK293; conditions: EC50, best-fit value, WT-3 (F265A, I284A, K291A blocks);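 also: HEK293 cells coexpressing Nluc-tagged β-arrestin 1 and mVenus-fused FYVE endosomal marker, bystander BRET ratio read after ligand addition, coelenterazine h substrate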
OBSERVED PROPERTY: EC50 (µM)
Respond with the bare value in µM.

Result for N#Cc1cccc(-c2ccc3ncc(-c4cc(F)cc(F)c4)c(N4CCC(N)CC4)c3c2)c1O [paltusotine] , tested on SSTR2 (Homo sapiens, UniProt P30874), EC50: 0.0585

---

target: SSTR2 (Homo sapiens, UniProt P30874); experiment: SSTRs Gi-mediated cAMP inhibition, GloSensor, HEK293, 5 μM forskolin, 15 min room temperature (SSTR2 wild-type); type: cell-based; settings: EC50, WT-3, run paired with Y205R
OBSERVED PROPERTY: pEC50
Conceptually, pEC50 converts a concentration in mol/L into minus its log10.

pEC50 recorded for this compound, N#Cc1cccc(-c2ccc3ncc(-c4cc(F)cc(F)c4)c(N4CCC(N)CC4)c3c2)c1O , is 8.68

---

biological target: SSTR3 (Homo sapiens, UniProt P32745); construct: The human full-length SSTRs and mutants were cloned into the pcDNA3.1+ vector; expressed in transfected cells; host or cells: HEK293 (ATCC, CRL-1573); assay: SSTRs Gi-mediated cAMP inhibition, GloSensor, HEK293 (SSTR3 wild-type); format: cell-based; conditions: best-fit; SSTR3 WT-3 (F296D set); read-out: EC50
Sequence (P32745 whole entry): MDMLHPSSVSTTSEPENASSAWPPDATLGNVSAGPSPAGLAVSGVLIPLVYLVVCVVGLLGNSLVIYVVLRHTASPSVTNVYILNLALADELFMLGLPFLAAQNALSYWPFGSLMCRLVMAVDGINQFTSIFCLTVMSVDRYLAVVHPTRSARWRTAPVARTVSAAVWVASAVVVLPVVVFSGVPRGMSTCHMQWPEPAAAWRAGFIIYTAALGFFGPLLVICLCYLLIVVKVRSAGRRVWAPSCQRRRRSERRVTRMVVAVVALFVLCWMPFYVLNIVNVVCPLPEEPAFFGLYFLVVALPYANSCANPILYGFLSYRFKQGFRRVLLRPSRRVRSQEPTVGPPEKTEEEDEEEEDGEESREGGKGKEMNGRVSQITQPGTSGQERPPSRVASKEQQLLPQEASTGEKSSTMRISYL
OBSERVED PROPERTY: EC50

Form: compound = N#Cc1cccc(-c2ccc3ncc(-c4cc(F)cc(F)c4)c(N4CCC(N)CC4)c3c2)c1O ; EC50 = 63.4 nM

---

molecular target: SSTR2 (Homo sapiens); assay: Bystander BRET endosomal trafficking (β-arrestin 1-Nluc, FYVE-mVenus), HEK293 (SSTR2 wild-type); format: cell-based; parameters: The human full-length SSTRs and mutants were cloned into the pcDNA3.1+ vector; expressed in transfected cells; host or cells: HEK293; settings: EC50, best-fit value, WT-1 (F265A, I284A, K291A blocks)
OBSERVED PROPERTY: pEC50
Field pEC50 (float): negative decimal logarithm of the concentration in molar.

Given item N#Cc1cccc(-c2ccc3ncc(-c4cc(F)cc(F)c4)c(N4CCC(N)CC4)c3c2)c1O , the value recorded as its pEC50 is 7.39

---

biological target: SSTR2 (Homo sapiens, UniProt P30874); experiment: SSTRs Gi-mediated cAMP inhibition, GloSensor, HEK293, 5 μM forskolin, 15 min room temperature (SSTR2 wild-type); assay type: cell-based; settings: EC50, WT-3, run paired with F294Y
OBSERVED PROPERTY: pEC50
In textbook form, pEC50 equals minus log to base ten of the concentration in mol/L.

The compound N#Cc1cccc(-c2ccc3ncc(-c4cc(F)cc(F)c4)c(N4CCC(N)CC4)c3c2)c1O showed pEC50 equal to 8.94

---

target: SSTR2 (Homo sapiens); assay: SSTRs Gi-mediated cAMP inhibition, GloSensor, HEK293, 5 μM forskolin, 15 min room temperature (SSTR2 wild-type); type: cell-based; details: EC50, cAMP inhibition best-fit; V103A set; WT-3
OBSERVED PROPERTY: pEC50
Please treat pEC50 as minus the base-10 logarithm of the molar concentration.

Quick note, pEC50 for N#Cc1cccc(-c2ccc3ncc(-c4cc(F)cc(F)c4)c(N4CCC(N)CC4)c3c2)c1O landed at 8.92

---

biological target: SSTR2 (Homo sapiens, UniProt P30874); assay: SSTRs Gi-mediated cAMP inhibition, GloSensor, HEK293, 5 μM forskolin, 15 min room temperature (SSTR2 wild-type); type: cell-based; conditions: EC50, WT-1, run paired with D295F
OBSERVED PROPERTY: EC50 (nM)
Field format: number, assumed nM, no unit text.

Measured on SSTR2 (Homo sapiens, UniProt P30874), N#Cc1cccc(-c2ccc3ncc(-c4cc(F)cc(F)c4)c(N4CCC(N)CC4)c3c2)c1O has a documented EC50 of 0.307

---

Molecular target: SSTR2 (Homo sapiens, UniProt P30874)
Experiment: NanoBiT β-arrestin 1 recruitment assay, HEK293 (SSTR2 wild-type)
Format: cell-based
Parameters: Human full-length SSTR wild-type and mutant vectors were C-terminally fused; expressed in transfected cells; host or cells: HEK293
Conditions: EC50 (best-fit), WT-1 (F127A set)
Protocol: The NanoBiT β-arrestin 1 recruitment assays were carried out according to the method described previously. […] Human full-length SSTR wild-type and mutant vectors were C-terminally fused with a 15-amino acid flexible linker and the small fragment (SmBiT). […] Then, ligands diluted in the assay buffer was added to each well and the luminescence intensity was measured using the Synergy H1 microplate reader and detected at room temperature in a time period. […]
OBSERVED PROPERTY: EC50 (nM)
Supply the numeric figure in nM, leaving out any unit text.

The molecule listed as N#Cc1cccc(-c2ccc3ncc(-c4cc(F)cc(F)c4)c(N4CCC(N)CC4)c3c2)c1O has a reported EC50 of 307

---

tested on: SSTR2 mutants; assay: SSTRs Gi-mediated cAMP inhibition, GloSensor, HEK293, 5 μM forskolin, 15 min room temperature (SSTR2 mutants); format: cell-based, human; settings: read-out: EC50 (best-fit value); P220A-1 (run 1)
OBSERVED PROPERTY: pEC50
pEC50 (log units): -log10 of the concentration in mol/L.

GET /value?item= N#Cc1cccc(-c2ccc3ncc(-c4cc(F)cc(F)c4)c(N4CCC(N)CC4)c3c2)c1O &field=pEC50 returns 8.46
